log10(GI50) values for the compounds below.
test protocol: Growth inhibition of human NCI60 cells after 3 days by crystal violet staining
Type: functional
recorded conditions: NCI60, 72 h
# values: log10(GI50), units nM

{"columns": ["compound", "log10(GI50)"],
 "data": [
  ["COc1ccc(-c2nccn2-c2cc(OC)c(OC)c(OC)c2)cc1", 3.66],
  ["COc1cc(-n2ccnc2-c2ccc3ccccc3c2)cc(OC)c1OC", 2.18],
  ["COc1ccc(-c2cncn2-c2cc(OC)c(OC)c(OC)c2)cc1F", 1.60],
  ["COc1ccc(/C=C\\c2cc(OC)c(OC)c(OC)c2)cc1O [COMBRETASTATIN A4]", 2.00],
  ["COc1ccc(-c2cncn2-c2cc(OC)c(OC)c(OC)c2)cc1", 2.41]
]}

# context switch: different compound, same log10(GI50)
q: Give the measured log10(GI50) of COc1cc(-n2cncc2-c2ccc3ccccc3c2)cc(OC)c1OC .
a: 1.86
